These measurements were taken from ChEMBL document CHEMBL4825753.

# study-system: Receptor-type tyrosine-protein kinase FLT3 (Homo sapiens)
# Sequence (P36888 whole entry): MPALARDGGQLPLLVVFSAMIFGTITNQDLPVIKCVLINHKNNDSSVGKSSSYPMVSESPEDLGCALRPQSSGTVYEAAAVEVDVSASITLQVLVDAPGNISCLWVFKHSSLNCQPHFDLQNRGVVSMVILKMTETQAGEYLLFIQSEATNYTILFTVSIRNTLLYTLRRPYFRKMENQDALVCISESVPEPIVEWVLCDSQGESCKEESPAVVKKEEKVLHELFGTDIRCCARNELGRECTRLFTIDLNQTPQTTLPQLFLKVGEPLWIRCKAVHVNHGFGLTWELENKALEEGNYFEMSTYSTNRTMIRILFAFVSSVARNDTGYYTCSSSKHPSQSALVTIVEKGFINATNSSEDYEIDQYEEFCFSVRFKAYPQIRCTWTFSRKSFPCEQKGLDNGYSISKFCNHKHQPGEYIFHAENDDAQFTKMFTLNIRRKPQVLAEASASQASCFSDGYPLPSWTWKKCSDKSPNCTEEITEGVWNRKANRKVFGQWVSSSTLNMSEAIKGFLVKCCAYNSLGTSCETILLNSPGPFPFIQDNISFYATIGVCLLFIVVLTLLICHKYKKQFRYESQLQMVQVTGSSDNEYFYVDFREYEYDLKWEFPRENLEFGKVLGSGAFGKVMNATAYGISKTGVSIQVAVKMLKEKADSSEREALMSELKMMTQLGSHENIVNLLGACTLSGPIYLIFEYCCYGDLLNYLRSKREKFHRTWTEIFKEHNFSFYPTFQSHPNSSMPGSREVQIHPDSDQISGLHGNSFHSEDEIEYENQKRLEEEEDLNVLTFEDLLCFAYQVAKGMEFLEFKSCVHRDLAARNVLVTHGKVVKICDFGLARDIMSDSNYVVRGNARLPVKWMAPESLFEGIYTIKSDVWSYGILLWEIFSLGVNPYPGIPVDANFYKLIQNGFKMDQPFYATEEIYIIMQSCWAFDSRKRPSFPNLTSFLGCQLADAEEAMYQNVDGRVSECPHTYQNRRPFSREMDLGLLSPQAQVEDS
# test-description: Inhibition of FLT3 (unknown origin) by LC-MS analysis
value-kind: IC50

Solved cases (3 shown):
Cc1nc(-c2c(C)nn(C)c2C)ccc1-c1nnc(N(C)Cc2ccc3nccn3c2)o1
> 100 µM
Cc1nn(C)c(C)c1-c1ccc(-c2nnc(N(C)Cc3ccc4nccn4c3)o2)c(F)c1
> 100 µM
CN(Cc1ccc2nccn2c1)c1nnc(-c2ccccc2)o1
> 100 µM

Shift focus to the following entry.
Query string: Give IC50 for "Cc1nn(C)c(C)c1-c1ccc(-c2nnc(N(C)Cc3ccc4nccn4c3)o2)cc1"
Result string: > 63.1 µM
